system: α7 integrin (LacZ reporter in α7βgal+/− myoblasts); experiment: Myoblast α7+/LacZ integrin FDG assay (Burkin assay in myoblasts, 96-well); type: cell-based, mouse; settings: Mus musculus, Myoblast, 48 h; 40 uM; α7+/LacZ myoblasts, 96-well; read-out: Burkin Assay in Myoblasts, value relative to DMSO
Please go through the items and note down their fold induction at 40 µM.
The reply should be a number, written without any unit.

Entry CCc1ccc(N(C(=O)c2snc(C(N)=O)c2N)C(C(=O)NC2CCCC2)c2ccco2)cc1 (centres unmarked) — recorded fold induction at 40 µM = 0.274

Entry O=C(NCCc1ccc(F)cc1)N[C@@H](Cc1ccccc1)C(=O)O — recorded fold induction at 40 µM = 1.05

Entry CCOc1ccc(NC(=O)CN2C(=O)NC(CCSC)C2=O)cc1 (centres unmarked) — recorded fold induction at 40 µM = 0.896

Entry CCCCNC(=O)CN(C(=O)c1snc(C(=O)NC2CCCCC2)c1N)c1ccc(OC)cc1OC — recorded fold induction at 40 µM = 1.01

Entry COc1cccc(NC(=O)c2ccc3c(c2)CCCC3)c1 — recorded fold induction at 40 µM = 1.13

###

test system: β-galactosidase in CMV-LacZ C2C12 myotubes; assay: CMV-LacZ secondary screen in C2C12 myotubes (β-Gal stabilizing assay); type: cell-based, mouse; settings: 40 uM; C2C12 CMV-LacZ myotubes; fold relative to DMSO
MEASURED_METRIC: CMV-LACZ in Myotubes, signal relative to DMSO
The reply should be a number, written without any unit.

Entry CCOc1ccc(-n2c(C)c(C(=O)O)c3cc(OC)ccc32)cc1 — recorded CMV-LACZ in Myotubes, signal relative to DMSO = 0.7809

Entry O=C(COc1ccc(Cl)cc1)N1CCN(C2CCCC2)CC1.O=C(O)C(=O)O — recorded CMV-LACZ in Myotubes, signal relative to DMSO = 0.8576

Entry COc1ccc(NC(=O)C2(N(C(=O)Cn3nnnc3N)c3ccc(OC)cc3)CCCCC2)cc1 — recorded CMV-LACZ in Myotubes, signal relative to DMSO = 0.9506

Entry Cc1ccc(NC(=O)NCc2nc3ccccc3n2C)cc1 — recorded CMV-LACZ in Myotubes, signal relative to DMSO = 1.018

###

tested on: β-galactosidase in CMV-LacZ C2C12 myotubes; assay: CMV-LacZ secondary screen in C2C12 myotubes (β-Gal stabilizing assay); format: cell-based, mouse; conditions: 10 uM; CMV-LacZ C2C12 myotubes; 96-well format
Please go through the items and note down their CMV-LACZ in Myotubes (β-galactosidase activity relative to DMSO).
The reply should be a number, written without any unit.

Lab entry: β-galactosidase in CMV-LacZ C2C12 myotubes assay, compound CCCCS(=O)(=O)N1CCCC(C(=O)NCCc2ccccc2)C1 (stereo not shown) [MLS001163121-01] , CMV-LACZ in Myotubes (β-galactosidase activity relative to DMSO) = 0.8294

Lab entry: β-galactosidase in CMV-LacZ C2C12 myotubes assay, compound O=C(/C(=C(/[O-])c1ccccc1)[n+]1ccccc1)c1ccc([N+](=O)[O-])cc1 [MLS000705922-01] , CMV-LACZ in Myotubes (β-galactosidase activity relative to DMSO) = 0.9306

Lab entry: β-galactosidase in CMV-LacZ C2C12 myotubes assay, compound C[C@H]1CNC(=O)c2c(C(=O)Nc3ccc(CNC(=O)OC(C)(C)C)cc3)ncn21 [MLS003126425-01] , CMV-LACZ in Myotubes (β-galactosidase activity relative to DMSO) = 0.8902

Lab entry: β-galactosidase in CMV-LacZ C2C12 myotubes assay, compound CC(=O)c1cccc(NC(=O)C(=O)Nc2cccc3ccccc23)c1 [MLS000765108-01] , CMV-LACZ in Myotubes (β-galactosidase activity relative to DMSO) = 1.099

###

Please go through the items and note down their Burkin Assay in Myoblasts, value relative to DMSO.
tested on: α7 integrin (LacZ reporter in α7βgal+/− myoblasts); experiment: Myoblast α7+/LacZ integrin FDG assay (Burkin assay in myoblasts, 96-well); format: cell-based, mouse; settings: 0.5 uM; α7+/LacZ myoblasts, 96-well
The reply should be a number, written without any unit.

Entry CCCCNS(=O)(=O)c1ccc2nc(-c3cccnc3)cc(C(=O)NCCOC)c2c1 — recorded Burkin Assay in Myoblasts, value relative to DMSO = 1.02

Entry CNc1nnc(SCC(=O)c2cc(C)n(C3CC3)c2C)s1 — recorded Burkin Assay in Myoblasts, value relative to DMSO = 1.059

Entry CCCS(=O)(=O)N1CCCC(C(=O)c2cccc(Cl)c2)C1 (stereo not drawn) — recorded Burkin Assay in Myoblasts, value relative to DMSO = 1.029

Entry COC(=O)c1ccc(COC(=O)CNC(=O)c2cccs2)cc1 — recorded Burkin Assay in Myoblasts, value relative to DMSO = 0.9767

Entry COc1ccc(-n2c(SCC(=O)Nc3cccc(C(=O)O)c3)nnc2-c2ccco2)cc1 — recorded Burkin Assay in Myoblasts, value relative to DMSO = 0.887

Entry CCCC(=O)Nc1ccccc1NC(=O)c1ccc(OCC)cc1 — recorded Burkin Assay in Myoblasts, value relative to DMSO = 0.8234

Entry O=C(N/N=C/c1cn[nH]c1-c1ccc(F)cc1)c1ccncc1 — recorded Burkin Assay in Myoblasts, value relative to DMSO = 1.037

Entry CC(=O)Nc1c(-c2ccc(Cl)cc2)c(=O)c2ccccc2n1C — recorded Burkin Assay in Myoblasts, value relative to DMSO = 1.064

Entry Cc1cccc(OCc2nc(C#N)c(N3CCCC3)o2)c1 — recorded Burkin Assay in Myoblasts, value relative to DMSO = 1.04

###

Please go through the items and note down their activation at 0.307 µM.
test system: α7 integrin (LacZ reporter in α7LacZ+/− myoblasts); assay: qHTS of the LOPAC library and MLSMR (online screen, α7LacZ+/− myoblasts); settings: Mus musculus, Myoblast, 48 h, read-out: Activity at 0.307 uM [%] **
// units = %; emit number, no label

Entry CC1CCCCC12NC(=O)N(CC(=O)OCc1cccc(F)c1)C2=O (centres unmarked) [Compound 67] — recorded activation at 0.307 µM = 6.4

Entry CCc1nnc(NC(=O)c2ccc(S(=O)(=O)NCC(C)C)cc2)s1 [Compound 66] — recorded activation at 0.307 µM = 16.2

Entry O=C(NC(=S)NCCC1=CCCCC1)c1ccc(Br)o1 [Compound 205] — recorded activation at 0.307 µM = -39.4

Entry Cc1c(C(=O)O)cccc1-n1c(C)cc(/C=N/Nc2ccc([N+](=O)[O-])cn2)c1C [Compound 9] — recorded activation at 0.307 µM = -24.5

Entry CN(C)S(=O)(=O)c1cccc(C(=O)Nc2ccc3c(c2)CCC3)c1 [Compound 8] — recorded activation at 0.307 µM = -15.4

###

test system: β-galactosidase in CMV-LacZ C2C12 myoblasts; test: CMV-LacZ secondary screen in C2C12 myoblasts (β-Gal stabilizing assay); type: cell-based, mouse; settings: 0.5 uM; CMV-LacZ C2C12 myoblasts
MEASURED_METRIC: CMV-LACZ in Myoblasts (β-galactosidase activity relative to DMSO)
The reply should be a number, written without any unit.

Entry Nc1ncnc(NCc2ccccc2)c1[N+](=O)[O-] [MLS000698826-01] — recorded CMV-LACZ in Myoblasts (β-galactosidase activity relative to DMSO) = 0.9942

Entry CC(C)Oc1cccc(C(=O)Nc2ccc(CN3CCOCC3)cc2)c1 [MLS000062431-01] — recorded CMV-LACZ in Myoblasts (β-galactosidase activity relative to DMSO) = 0.9557

Entry CCC(CC)C(=O)Nc1c(C(=O)N2CCN(c3ccccc3)CC2)oc2ccccc12 [MLS001116079-01] — recorded CMV-LACZ in Myoblasts (β-galactosidase activity relative to DMSO) = 1.0950

Entry COc1ccccc1C(=O)OCc1ccc2sc(C)nc2c1 [MLS001006798-01] — recorded CMV-LACZ in Myoblasts (β-galactosidase activity relative to DMSO) = 0.8334

Entry N/C(=N\OC(=O)c1cccc(C(F)(F)F)c1)c1cnccn1 [MLS001098105-01] — recorded CMV-LACZ in Myoblasts (β-galactosidase activity relative to DMSO) = 1.4689

Entry CCC(=O)c1ccc(OCC(O)CN2CC(C)OC(C)C2)cc1.O=C(O)C(=O)O (stereo not drawn) [MLS000053342-01] — recorded CMV-LACZ in Myoblasts (β-galactosidase activity relative to DMSO) = 1.0289

Entry O=C(CSc1nnc(COc2ccc(Br)cc2)o1)NC1CCCCC1 [MLS001215357-01] — recorded CMV-LACZ in Myoblasts (β-galactosidase activity relative to DMSO) = 1.1560

Entry COc1cccc(CN2CCN(Cc3ccco3)CC2)c1.O=C(O)C(=O)O [MLS001211139-01] — recorded CMV-LACZ in Myoblasts (β-galactosidase activity relative to DMSO) = 0.9691

Entry CC1(C)Cc2c(cnn2-c2cccc(F)c2)C(NC(=O)CCc2cnccn2)C1 (stereo not drawn) [MLS001125260-01] — recorded CMV-LACZ in Myoblasts (β-galactosidase activity relative to DMSO) = 1.1581

Entry CCCc1nnc(SCC(=O)NC2CCCC2)n1CCOC [MLS001217935-01] — recorded CMV-LACZ in Myoblasts (β-galactosidase activity relative to DMSO) = 1.1729

Entry C#CC1(O)CCC2C3CCC4=C/C(=N/OCC(=O)NCC(=O)NC(C(=O)O)C(C)C)CC[C@]4(C)C3CC[C@@]21C (stereo partly drawn) [MLS001163859-01] — recorded CMV-LACZ in Myoblasts (β-galactosidase activity relative to DMSO) = 1.1113

Entry O=C(CNC(=O)c1cccc(F)c1)N/N=C/c1cc(Br)ccc1OCc1ccccc1 [MLS000591667-01] — recorded CMV-LACZ in Myoblasts (β-galactosidase activity relative to DMSO) = 0.9491

Entry Cc1cccc(Sc2nc(-c3ccccc3)ccc2C#N)c1 [MLS000325736-01] — recorded CMV-LACZ in Myoblasts (β-galactosidase activity relative to DMSO) = 0.7862

Entry COC(=O)c1ccc(N=Nc2ccccc2)cc1 [MLS001005712-01] — recorded CMV-LACZ in Myoblasts (β-galactosidase activity relative to DMSO) = 1.0188

Entry Cc1cccc2c(N=Nc3ccc(S(=O)(=O)Nc4ccc(Cl)cc4)cc3[N+](=O)[O-])c(O)[nH]c12 [MLS000393762-01] — recorded CMV-LACZ in Myoblasts (β-galactosidase activity relative to DMSO) = 0.9560

Entry CCOC(=O)c1cc(-c2cccs2)nc2c1c(C)nn2-c1ccccn1 [MLS001006516-01] — recorded CMV-LACZ in Myoblasts (β-galactosidase activity relative to DMSO) = 1.0038

Entry COC(=O)c1ccccc1NC(=O)CSc1nc(O)c(-c2ccccc2)c(=O)[nH]1 [MLS000621451-01] — recorded CMV-LACZ in Myoblasts (β-galactosidase activity relative to DMSO) = 1.0388

Entry Cc1ccsc1-c1n[nH]c(=S)n1C1CCCCC1 [MLS000698617-01] — recorded CMV-LACZ in Myoblasts (β-galactosidase activity relative to DMSO) = 1.3409
